system: K562; test: NCI tumour cell line growth inhibition, 48 h
Active and inactive are the calls of the source. Cut-off read from the data, not from the text of the source: active = GI50 up to about 1.1 µM and inactive = higher.
Could you please pick one outcome from this set? 1.0 = active, 0.0 = inactive

**Query** // param item: "CC[C@H]1C=CCC[C@@]2(C[C@@H]3CC[C@@H]4[C@H](C(=O)OCCCCCCCCCCCCCCCC(=O)N(CCCN)C[C@@H](O)CCN)[C@]5(CCC[C@@H](C)O5)NC(=[N+]34)N2)O1" ; yields the recorded call
**Result** 1.0

**Query** Called result for O=C1CC(c2cccc([N+](=O)[O-])c2)C2(C(=O)NC(=O)NC2=O)C(c2cccc([N+](=O)[O-])c2)C1 (stereo not drawn)
**Result** 0.0
